B1: FEM1A (parent)
chain: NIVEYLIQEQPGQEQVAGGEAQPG

# Variants of: B1
# PROTOCOL DESCRIPTION: protein stability index of a GFP-peptide fusion (GPS, HEK-293T) (PSI 1-6); higher = more stable;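 note: lentivirally expressed fusions sorted by FACS into six bins by GFP to DsRed ratio, PSI derived from sequencing read proportions per bin multiplied by bin number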
# RUN CONDITIONS: c terminus: a fixed tail appended
# protein stability index annotations
Enter a number only.

GET /values?readout=protein stability index&item= `N1K`
3.36

GET /values?readout=protein stability index&item= `Q15A`
4.2

GET /values?readout=protein stability index&item= `E4R`
3.48

GET /values?readout=protein stability index&item= `A21R`
4.19

GET /values?readout=protein stability index&item= `G19Q`
4.09

GET /values?readout=protein stability index&item= `Q10C`
3.83

GET /values?readout=protein stability index&item= `P23C`
3.98

GET /values?readout=protein stability index&item= `E4G`
4.16

GET /values?readout=protein stability index&item= `Q15H`
4.02

GET /values?readout=protein stability index&item= `P11E`
4.27

GET /values?readout=protein stability index&item= `G18K`
3.75

GET /values?readout=protein stability index&item= `I2L`
4.29
